# target.or.system: Sterol 14-alpha demethylase (Trypanosoma cruzi (strain CL Brener))
# Sequence (Q7Z1V1 whole entry): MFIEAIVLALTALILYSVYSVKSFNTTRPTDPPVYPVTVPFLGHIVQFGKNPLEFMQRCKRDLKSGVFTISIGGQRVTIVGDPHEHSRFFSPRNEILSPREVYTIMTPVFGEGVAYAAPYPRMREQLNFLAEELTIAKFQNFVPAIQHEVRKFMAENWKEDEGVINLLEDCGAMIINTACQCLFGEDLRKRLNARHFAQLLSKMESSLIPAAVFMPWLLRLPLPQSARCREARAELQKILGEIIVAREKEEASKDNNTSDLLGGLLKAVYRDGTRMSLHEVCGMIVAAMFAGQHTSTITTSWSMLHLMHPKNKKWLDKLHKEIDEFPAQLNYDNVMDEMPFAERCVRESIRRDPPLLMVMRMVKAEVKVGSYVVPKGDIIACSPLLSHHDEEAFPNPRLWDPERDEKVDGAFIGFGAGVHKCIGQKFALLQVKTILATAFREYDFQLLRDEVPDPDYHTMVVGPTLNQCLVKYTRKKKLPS
# assay.text: GSK_TCAKS: pIC50 CYP51 from Trypanosoma cruzi.
pIC50: −log10 of the molar value.
Some molecules, each annotated with its measured pIC50.

structure.smiles.string: COCCn1c(-c2ccccc2)cnc1NCc1ccccc1OC
pIC50: 5.10
--
structure.smiles.string: COc1ccc(OC)c(NC(=O)c2ccc([N+](=O)[O-])o2)c1
pIC50: 5.00
--
structure.smiles.string: Cc1cc(C)cc(NS(=O)(=O)c2cc(-c3cc(C)n[nH]3)ccc2C)c1
pIC50: 5.10

* * *

This listing pairs compounds with measured IC50.
# Tested on: Trypanosoma brucei brucei
# assay.text: GSK_TCAKS: pIC50 Trypanosoma brucei viability assay using fluorescence intensity. Assay plates (1536-well) were prepared by dispensing 25nL of compound solution per well using an Echo acoustic dispenser (Labcyte).
# Assay type: functional, organism-based
# experimental.parameters: Lister 427, 2 h

compound: COc1ccc(CN(C)Cc2ccncc2)cc1-c1ccc(S(=O)(=O)NC2CCC2)s1
comparative.sign: >
IC50, nM: 39800
//
compound: CC(C)N(C(=O)CN1C(=O)C(N)C(=O)N(c2ccccc2)c2ccccc21)c1ccccc1 (stereo not given)
comparative.sign: >
IC50, nM: 39800
//
compound: O=S(=O)(c1ccccc1C(F)(F)F)N1CCN(Cc2ccc(-n3ccnc3)cc2)CC1
comparative.sign: >
IC50, nM: 39800
//
compound: COc1ccc(Nc2nc(N[C@H]3CC[C@H](O)CC3)ncc2Br)c(C(N)=O)c1
comparative.sign: =
IC50, nM: 100
//
compound: Cc1ccc(CNC2CCN(C[C@@H]3Cn4c(=O)ccc5ccc(=O)n3c54)CC2)cc1F
comparative.sign: =
IC50, nM: 1580
//
compound: CC(=O)Nc1ccc(CN2CCC(N3CC(c4ccccc4)(c4ccccc4)OCC3=O)CC2)cc1
comparative.sign: =
IC50, nM: 316
//
compound: COCc1cc(Nc2ccccc2)nc(-c2ccccn2)n1
comparative.sign: >
IC50, nM: 39800
//
compound: CCOc1ccc(CC(=O)N2c3ccccc3CC2C(=O)NC)cc1 (stereo not given)
comparative.sign: =
IC50, nM: 501
//
compound: CS(=O)(=O)N[C@H]1CC[C@@H](Oc2cc3cnccc3cc2-c2ccsc2)CC1
comparative.sign: =
IC50, nM: 15800
//
compound: CC(C)(C)C(O)(CCc1ccc(Cl)cc1)Cn1cncn1 (stereo not given)
comparative.sign: >
IC50, nM: 39800
//
compound: CCC1Oc2cc(S(=O)(=O)N(C)CC(=O)N3CCc4ccccc4C3)c(C)cc2NC1=O (stereo not given)
comparative.sign: =
IC50, nM: 25100
//
compound: O=C(C1CCCCC1)N1CCN(c2nnc(-c3ccccc3)c3ccccc23)CC1
comparative.sign: =
IC50, nM: 10000
//
compound: CCC(=O)N1N=C(c2ccc3c(c2)CCCC3)Sc2c1ncn2C(=O)CC
comparative.sign: =
IC50, nM: 15800
//
compound: CC(C)Oc1ccc(C(=O)Nc2ccc(N3CCOCC3)c(Cl)c2)cc1
comparative.sign: =
IC50, nM: 12600
//
compound: CCc1c(C)nc(-n2nc(C)cc2NC(=O)COc2ccccc2F)[nH]c1=O
comparative.sign: =
IC50, nM: 158
//
compound: O=C(NCc1nnc2n1CCCCC2)c1ccc(-c2ccc(F)cc2)o1
comparative.sign: =
IC50, nM: 126
//
compound: O=c1oc2ccccc2n1C1CCN(Cc2ccccc2-c2cccnc2)CC1
comparative.sign: =
IC50, nM: 39800
//
compound: Cc1ccc(-c2csc(NC(=O)C=Cc3ccc(S(=O)(=O)N4CCOCC4)cc3)n2)o1
comparative.sign: =
IC50, nM: 3160
//
compound: COCCn1c(-c2ccc3c(c2)OCO3)cnc1NCc1ccccc1OC
comparative.sign: =
IC50, nM: 20000
//
compound: COc1cnc2ccc(=O)n(CCN3CCC(NC(=O)c4ccc(Cl)cc4)CC3)c2c1
comparative.sign: =
IC50, nM: 79.4
//
compound: CC(C)C[C@H](NC(=O)c1csc(-c2cccs2)n1)C(=O)NC1(C#N)CC1
comparative.sign: =
IC50, nM: 158
//
compound: N#Cc1cccc(CNc2ccc(-c3cnn(CC4CC4)c(=O)c3C#N)cc2)c1
comparative.sign: =
IC50, nM: 10000
//
compound: Cc1ccc(NC(=O)c2ccnc(N3CCCC3)c2)cc1-c1ccsc1C(N)=O
comparative.sign: =
IC50, nM: 63.1
//
compound: O=C(CC1(O)C(=O)N(Cc2cccs2)c2ccc(Br)cc21)c1cccnc1 (stereo not given)
comparative.sign: =
IC50, nM: 631
//
compound: Cc1nn(-c2nc(N)nc(-c3ccccn3)n2)c(C)c1Cc1ccccc1
comparative.sign: >
IC50, nM: 39800
//
compound: CCCc1nc2nc(N)nc(N)c2cc1CC
comparative.sign: =
IC50, nM: 20000
//
compound: COc1ncc(-c2ccc3ncnc(N4CCOCC4)c3c2)cc1NS(C)(=O)=O
comparative.sign: =
IC50, nM: 316
//
compound: Cc1ccccc1NS(=O)(=O)c1ccc2[nH]cc(C(=O)NC3CCCC3)c(=O)c2c1
comparative.sign: =
IC50, nM: 316
//
compound: O=C1CCCCCC1(Cc1cnc[nH]1)c1ccc(Cl)cc1Cl (stereo not given)
comparative.sign: >
IC50, nM: 39800
//
compound: CN(C)Cc1ccc(-c2ccc(S(=O)(=O)NCC3CCCO3)c(F)c2)cc1 (stereo not given)
comparative.sign: =
IC50, nM: 25100
//
compound: CCS(=O)(=O)c1cccc(C(=O)Nc2nc(-c3ccccn3)cs2)c1
comparative.sign: =
IC50, nM: 501
//
compound: CNc1cc(Cn2c(C(=O)c3cc(C)cc(Cl)c3)c(C(C)C)c(=O)[nH]c2=O)ccn1
comparative.sign: =
IC50, nM: 25100
//
compound: Cc1cc2nc(CN(C)Cc3ncccc3C)[nH]c2cc1C
comparative.sign: =
IC50, nM: 631
//
compound: COc1ccc(-c2cnc(NC(=O)c3cc(-c4ccccn4)n[nH]3)n2C)cc1
comparative.sign: =
IC50, nM: 398
//
compound: N#CN1CC[C@@H](NC(=O)Nc2ccccc2Oc2ccccc2)C1
comparative.sign: =
IC50, nM: 1000

This collection of values is drawn from ChEMBL document CHEMBL3430912.
